- Tested on: SR leukemia
- test protocol: NCI tumour cell line growth inhibition, 48 h; in the data active means GI50 below about 0.43 µM; inactive means the rest
Possible outcomes: Y = active, N = inactive

molecule	group label
CCCCCCCC(=O)OCC/C=C/C1OC1C1OC(=O)/C=C\C=C\c2nc(oc2C)/C=C(/C)CCC2OC2C1OC(=O)NC(C)=O (centres undefined)	Y
COc1cc2ncn(-c3cc(OCc4cccs4)c(C(N)=O)s3)c2cc1OC	N
COc1ccc2c(c1)C(=O)c1c-2n(CCCn2ccnc2)c(=O)c2cc([N+](=O)[O-])ccc12	Y
Cc1ccc(C(=O)N(CCCN)C(c2oc3cc(Cl)ccc3c(=O)c2Cc2ccccc2)C(C)C)cc1 (centres undefined)	Y
Cc1ccc2c(c1)Sc1c(ccc3ccccc13)N2	N
Cc1cc(-c2cnn3c(NCC4CC(C)(O)C4)cc(Oc4cccnc4)nc23)ccc1C(=O)NC1CC1 (centres undefined)	N
Nc1nc(N(Cc2ccccc2)c2ccccc2)c2cn[nH]c2n1	N
C[N+]1=C(/C=C/c2ccc(O)c3ncccc23)C(C)(C)c2ccccc21	N
CCCC(=O)OCC1OC(n2cnc3c(=S)nc[nH]c32)C(OC(=O)CCC)C1OC(=O)CCC (centres undefined)	N
CCCn1c(=S)sc2c1nc(C)n1c(Nc3ccccc3)nnc21	N
COC(=O)Nc1nc2ccc(Oc3ccc(NC(=O)Nc4cc(C(F)(F)F)ccc4F)cc3)cc2s1	N
COc1ccc(-c2nc(-c3nc4ccc(Cl)cc4[nH]3)c3ccccn23)cc1	N
C#CCNC(=O)c1cccc2c1cc(C)n2-c1nc2c(c(NCc3ccccc3)n1)CCCC2	Y
O=C(O)CCNC1CCCCC1	N

====

- System: NCI-H522 lung
- test protocol: NCI tumour cell line growth inhibition, 48 h

molecule	TGI
CC1OC(OC2C(OC(=O)[C@]34CCC(C)(C)CC3C3=CCC5[C@@]6(C)C[C@H](O)[C@H](OC7OC(CO)C(O)C(O)C7N)[C@@](C)(C(=O)O)C6CC[C@@]5(C)C3(C)CC4)OCC(O)C2O)C(O)C(O)C1OC1OCC(O)C(O)C1O (some centres not stated)	> 100 µM
CCC(C)(C)C1CCC2c3c([nH]c4ccccc34)C3C(=O)N(c4ccc(OC)cc4)C(=O)C3C2C1 (configuration not stated)	20.6 µM
Cc1ccc(NC(=O)CC(=O)n2nc(C)c(N=Nc3ccccc3C(=O)O)c2C)cc1	> 100 µM
O=C1CN(C(=O)C2CCCN2C(=O)C2CCCN2)C(=O)CN1 (configuration not stated)	> 100 µM
CC(=O)O[C@H]1C(=O)[C@@]2(C)C(C(OC(=O)c3ccccc3)[C@]3(O)CC(OC(=O)[C@H](OC(=O)CCC(=O)O)C(NC(=O)c4ccccc4)c4ccccc4)C(C)=C1C3(C)C)C1(OC(C)=O)COC1C[C@@H]2O (some centres not stated)	< 0.01 µM
Cc1c(C(=O)C/C(=N/NC(=O)C[N+](C)(C)C)C(=O)Nc2ccc(Cl)cc2)[n+](=O)c2ccccc2n1O	> 100 µM
CCC/C=C/c1cc2c(cc1O)CC[C@@H]1[C@@H]2CC[C@]2(C)[C@@H](O)CC[C@@H]12	35.5 µM

====

// reported TGI per item
- System: OVCAR-5 ovarian
- test protocol: NCI tumour cell line growth inhibition, 48 h

compound	target or system	TGI
Clc1ccccc1-c1nc2ccc(C34CC5CC(CC(C5)C3)C4)cc2[nH]1	OVCAR-5 ovarian	54 µM
COc1ccc(-c2nc(-c3nc4ccc(Cl)cc4[nH]3)c3ccccn23)cc1	OVCAR-5 ovarian	29.3 µM
O=C(CCN(C(=O)O)S(=O)(=O)c1ccc(NC(=O)c2ccccc2)cc1)NC1CCCCC1	OVCAR-5 ovarian	> 100 µM
N#CSC1CCCCNC1=O (stereo unspecified)	OVCAR-5 ovarian	13.2 µM
COc1ccc(C[C@@H](CO)NC2=C(C#N)CCC2)cc1	OVCAR-5 ovarian	> 100 µM
c1ccc(-c2cn3c(nc4ccccc43)c(-c3ccccc3)n2)cc1	OVCAR-5 ovarian	> 100 µM
N#C/C(=C\c1ccc2ccccc2c1)c1ccccc1	OVCAR-5 ovarian	> 100 µM
COC(=O)/C=C(/C=C1/C(C#N)=C(N)N(c2ccc(Cl)cc2)C1(C)/C(=C/C(=O)OC)C(=O)OC)C(=O)OC (stereo unspecified)	OVCAR-5 ovarian	> 100 µM
Nc1cccnc1NCC1(CO)CCCC1	OVCAR-5 ovarian	> 100 µM
CS(=O)(=O)c1ccc(-n2nc(C(F)(F)F)cc2OC2CCCC2)cc1	OVCAR-5 ovarian	> 100 µM
O=C(O)C(CS)Nc1c2ccccc2nc2ccccc12 (stereo unspecified)	OVCAR-5 ovarian	> 100 µM
COC(=O)C1=C(O)C(C(=O)OC)[C@]2(O)[C@H](C(=O)OC)[C@H]1C[C@@H](c1ccc(Cl)cc1)[C@H]2C(=O)OC (stereo partly specified)	OVCAR-5 ovarian	40.3 µM
C[C@]12CC[C@H](OC(=O)Cc3ccc(N(CCCl)CCCl)cc3)CC1=CC[C@@H]1[C@@H]2CC[C@]2(C)C(=O)CC[C@@H]12	OVCAR-5 ovarian	> 100 µM
Ic1ccc2c(c1)N(c1ccccc1)c1cc(N=c3ccc4nc5ccc(I)cc5n(-c5ccccc5)c-4c3)ccc1N2	OVCAR-5 ovarian	> 100 µM
OCCCNc1nc(=S)[nH]c2[nH]ncc12	OVCAR-5 ovarian	> 100 µM
O=C(O)CCNC1CCCCC1	OVCAR-5 ovarian	> 100 µM
O=C1Nc2ccccc2C1(c1ccc(O)cc1)c1ccc(O)cc1	OVCAR-5 ovarian	81.5 µM
COc1ccc2nc3c(C(=O)NCCN(C)C)cccc3nc2c1	OVCAR-5 ovarian	81.3 µM
COC(=O)Nc1nc2ccc(Oc3ccc(NC(=O)Nc4cc(C(F)(F)F)ccc4F)cc3)cc2s1	OVCAR-5 ovarian	> 25 µM
COC(=O)C1=C(O)C(C(=O)OC)[C@]2(O)[C@H](C(=O)OC)[C@H]1C[C@@H](c1ccc(OC)c(OC)c1)[C@H]2C(=O)OC (stereo partly specified)	OVCAR-5 ovarian	> 100 µM
O=C(CC1C(=O)NN(c2ccc(Br)cc2)C1=O)c1cc(O)ccc1O (stereo unspecified)	OVCAR-5 ovarian	> 50 µM

====

- System: LXFL 529 NSCLC
- test protocol: NCI tumour cell line growth inhibition, 48 h

compound	target or system	TGI
[Cl-].[Rh+3].c1cnc2c(c1)ccc1cccnc12.c1cnc2c(c1)ccc1cccnc12.c1cnc2c(c1)ccc1cccnc12	LXFL 529 NSCLC	> 100 µM
O/N=C/c1ncccc1C1OCCO1	LXFL 529 NSCLC	> 100 µM
Nc1cccc(S(=O)(=O)NCC(=O)O)c1	LXFL 529 NSCLC	> 100 µM
CCc1ccccc1NC(=O)C1=C(C)NC(C)=C(C(=O)Nc2ccccc2CC)C1c1ccc2c(c1)OCO2	LXFL 529 NSCLC	98.4 µM
NC(=S)N1N=C2c3ccccc3CC[C@@H]2[C@@H]1c1ccccc1	LXFL 529 NSCLC	97.6 µM
Cc1cc(Cl)cc2c1NC(=O)C2(O)CC(=O)c1ccco1 (centres undefined)	LXFL 529 NSCLC	> 100 µM
C/C(O)=C(\N=O)C(=O)Nc1ccc(Cl)cc1Cl	LXFL 529 NSCLC	> 100 µM
CC(=O)OCC1OC(NC(=S)N/N=C2\CC(c3ccccc3)Oc3ccccc32)C(OC(C)=O)C(OC(C)=O)C1OC(C)=O (centres undefined)	LXFL 529 NSCLC	> 100 µM
CC(C)(C)c1cc(CCC(=O)Nc2ccc(Cl)cc2)nc(NC#N)n1	LXFL 529 NSCLC	> 100 µM
C/C(CC(=O)Nc1cc(C)ccc1C)=N\NC(=O)c1ccncc1	LXFL 529 NSCLC	> 100 µM
CCC[CH2][Sn]1([CH2]CCC)[O]C(=O)CN=Cc2c(ccc3ccccc23)[O]1	LXFL 529 NSCLC	0.249 µM
COc1ccc2c(c1)[n+](=O)c(C(=O)C/C(=N/OCCCc1ccccc1)C(=O)NC13CC4CC(CC(C4)C1)C3)c(C)n2[O-]	LXFL 529 NSCLC	> 100 µM
CCOC(=O)/C(C#N)=C/c1[nH]c(C(=O)OCc2ccccc2)c(C)c1C	LXFL 529 NSCLC	> 100 µM
c1nc(N2CC2)c2cnn(C3CCCCO3)c2n1 (centres undefined)	LXFL 529 NSCLC	> 100 µM

====

- Test system: SK-MEL-5 melanoma
- test protocol: NCI tumour cell line growth inhibition, 48 h; in the data active = GI50 below about 0.43 µM; inactive = the rest
Possible outcomes: yes (1) = active, no (0) = inactive

molecule	group label
CCN(CC)CCCC(C)Nc1c2ccc(Cl)cc2nc2ccc(O)cc12 (stereo unspecified)	no (0)
Cc1ccc(C(=O)N(CCCN)C(c2oc3cc(Cl)ccc3c(=O)c2Cc2ccccc2)C(C)C)cc1 (stereo unspecified)	yes (1)
CCCCCCCCn1ccc2cc(NC(=O)Cn3cc(CN4CCCC4)nn3)ccc21	no (0)
Cc1cc(-c2cnn3c(NCC4CC(C)(O)C4)cc(Oc4cccnc4)nc23)ccc1C(=O)NC1CC1 (stereo unspecified)	no (0)
O=C(CCc1nnc2sc(-c3ccc(Cl)cc3Cl)nn12)c1nc2ccccc2[nH]1	no (0)
Nc1nccc(-c2c(-c3ccc(F)cc3)ncn2C2CCC(O)CC2)n1 (stereo unspecified)	no (0)
Cc1ccc(C(=O)NC(C)C)cc1-c1ccc(C(=O)NCC2CC2)cc1	no (0)
CCCCCCCC(=O)OCC/C=C/C1OC1C1OC(=O)/C=C\C=C\c2nc(oc2C)/C=C(/C)CCC2OC2C1OC(=O)NC(C)=O (stereo unspecified)	yes (1)
O=C1C(Cl)=C(NCCN2CCOCC2)C(=O)c2ncccc21	no (0)
O=S(=O)(NC1=NCCN1C(=S)SN1CCn2c1nsc2=S)c1cccc(Cl)c1	no (0)
O=C(Nc1ccncc1)C(=O)c1cn(S(=O)(=O)c2cccc(F)c2)c2ccccc12	no (0)
